Reference for the values: ChEMBL document CHEMBL4177693

test system: HUVEC; assay: Antiproliferative activity against human VEGF-stimulated HUVEC after 120 hrs by CCK-8 assay; assay type: functional, cell-based
Field: pIC50. Provide a value for each of the molecules that follow.
API: returns pIC50 as number; meaning -log10 of concentration in mol/L.

For the molecule Cc1c(C(=O)NCCCN2CCOCC2)sc2ncnc(Oc3ccc(NC(=O)C4(C(=O)Nc5ccc(F)cc5)CC4)cc3F)c12 , what pIC50 is on record?
6.82

For the molecule Cc1c(C(=O)NCC#N)sc2ncnc(Oc3ccc(NC(=O)C4(C(=O)Nc5ccc(F)cc5)CC4)cc3F)c12 , what pIC50 is on record?
6.91

For the molecule Cc1c(C(=O)NCCS(C)(=O)=O)sc2ncnc(Oc3ccc(NC(=O)C4(C(=O)Nc5ccc(F)cc5)CC4)cc3F)c12 , what pIC50 is on record?
7.07

For the molecule Cc1c(C(=O)NCCN2CCOCC2)sc2ncnc(Oc3ccc(NC(=O)C4(C(=O)Nc5ccc(F)cc5)CC4)cc3F)c12 , what pIC50 is on record?
7.05

For the molecule COCCNC(=O)c1sc2ncnc(Oc3ccc(NC(=O)C4(C(=O)Nc5ccc(F)cc5)CC4)cc3F)c2c1C , what pIC50 is on record?
6.86
